measurement target: MERTK (UniProt Q12866)
Sequence (Q12866 whole entry, looked up): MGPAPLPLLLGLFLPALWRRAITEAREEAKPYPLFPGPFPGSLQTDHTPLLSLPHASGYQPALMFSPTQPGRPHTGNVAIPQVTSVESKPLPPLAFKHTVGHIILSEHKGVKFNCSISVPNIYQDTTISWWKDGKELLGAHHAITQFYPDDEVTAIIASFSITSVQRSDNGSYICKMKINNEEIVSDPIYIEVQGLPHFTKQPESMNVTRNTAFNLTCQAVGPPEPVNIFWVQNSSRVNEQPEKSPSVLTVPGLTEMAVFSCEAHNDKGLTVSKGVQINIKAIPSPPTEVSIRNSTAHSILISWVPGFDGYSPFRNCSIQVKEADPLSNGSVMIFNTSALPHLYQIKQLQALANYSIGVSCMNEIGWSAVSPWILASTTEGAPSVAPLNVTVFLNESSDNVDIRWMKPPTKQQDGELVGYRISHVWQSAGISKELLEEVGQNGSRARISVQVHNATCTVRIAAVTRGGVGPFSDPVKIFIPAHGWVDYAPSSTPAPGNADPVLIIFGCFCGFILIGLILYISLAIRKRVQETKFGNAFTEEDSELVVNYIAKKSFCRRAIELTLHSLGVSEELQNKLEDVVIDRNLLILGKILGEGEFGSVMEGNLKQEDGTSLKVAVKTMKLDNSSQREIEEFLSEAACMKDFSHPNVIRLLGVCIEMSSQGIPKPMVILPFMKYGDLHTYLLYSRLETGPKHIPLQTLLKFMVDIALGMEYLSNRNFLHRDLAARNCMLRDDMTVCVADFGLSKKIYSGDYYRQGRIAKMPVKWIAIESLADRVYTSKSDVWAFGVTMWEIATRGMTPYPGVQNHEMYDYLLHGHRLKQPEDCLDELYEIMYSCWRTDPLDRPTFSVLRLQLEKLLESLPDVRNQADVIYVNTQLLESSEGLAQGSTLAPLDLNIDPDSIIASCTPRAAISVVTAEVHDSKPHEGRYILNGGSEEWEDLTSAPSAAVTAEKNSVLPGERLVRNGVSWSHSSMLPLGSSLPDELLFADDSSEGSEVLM
procedure details: phosphorylation enrichment, bacterial display (enrichment ratio); higher = better substrate or ligand; peptides without Tyr show the background;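 further: 11-residue human phosphosite peptides and single-mutation variants displayed on the E. coli surface, counted by deep sequencing, each peptide's frequency after selection divided by its frequency in the unselected input library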;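 further: frequency after pTyr selection over input frequency; kinase dosed for 20-30% of maximal phosphorylation in three min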
measured endpoint: phosphorylation enrichment
Reply: number alone, nothing else.

QUERY: Reported phosphorylation enrichment, sequence SENAFYLSPDI [COL6A3_Y2827] : ____
RESULT: 0.754

QUERY: Reported phosphorylation enrichment, sequence SSFPDYLAAVD [GLB1_Y154_D151Y_YF] : ____
RESULT: 0.422

QUERY: Reported phosphorylation enrichment, sequence DRIVNYSRASI [ATP7A_Y1459] : ____
RESULT: 0.383

QUERY: Reported phosphorylation enrichment, sequence ADRLEYSRTGL [MMUT_Y287_G284R] : ____
RESULT: 0.728

QUERY: Reported phosphorylation enrichment, sequence QTEGEYSSLEH [IDH3B_Y171] : ____
RESULT: 0.556

QUERY: Reported phosphorylation enrichment, sequence DEDEEYEYMNR [ERBB3_Y1197] : ____
RESULT: 0.487

QUERY: Reported phosphorylation enrichment, sequence CTTIHYHFMCN [TP53_Y234_N235H_YF] : ____
RESULT: 0.441

QUERY: Reported phosphorylation enrichment, sequence DRLAVYIDRVS [LMNA_Y45_R50S] : ____
RESULT: 0.33

QUERY: Reported phosphorylation enrichment, sequence QKINNYLTVPA [SLC9A1_Y683] : ____
RESULT: 0.65

QUERY: Reported phosphorylation enrichment, sequence RNVLVYDKLNV [ROR2_Y624] : ____
RESULT: 3.88

QUERY: Reported phosphorylation enrichment, sequence PTDGVYVMPTV [MYO7A_Y1668_S1666G] : ____
RESULT: 11.7

QUERY: Reported phosphorylation enrichment, sequence GIVEEYQLPYY [BMPR1A_Y453] : ____
RESULT: 0.567

QUERY: Reported phosphorylation enrichment, sequence RDSQLYAVDYE [MRPS34_Y34] : ____
RESULT: 2.12

QUERY: Reported phosphorylation enrichment, sequence GEDEPYSEPYA [APBA1_Y183] : ____
RESULT: 0.531
